FYI, the data here is from patent US20250223378A1.

Molecular target: T1, PTK7 on the SK-OV-3 cell line (human ovarian cancer cells) (human, UniProt Q13308 31-1070)
T1 construct: whole, on cells
T1 sequence (looked up): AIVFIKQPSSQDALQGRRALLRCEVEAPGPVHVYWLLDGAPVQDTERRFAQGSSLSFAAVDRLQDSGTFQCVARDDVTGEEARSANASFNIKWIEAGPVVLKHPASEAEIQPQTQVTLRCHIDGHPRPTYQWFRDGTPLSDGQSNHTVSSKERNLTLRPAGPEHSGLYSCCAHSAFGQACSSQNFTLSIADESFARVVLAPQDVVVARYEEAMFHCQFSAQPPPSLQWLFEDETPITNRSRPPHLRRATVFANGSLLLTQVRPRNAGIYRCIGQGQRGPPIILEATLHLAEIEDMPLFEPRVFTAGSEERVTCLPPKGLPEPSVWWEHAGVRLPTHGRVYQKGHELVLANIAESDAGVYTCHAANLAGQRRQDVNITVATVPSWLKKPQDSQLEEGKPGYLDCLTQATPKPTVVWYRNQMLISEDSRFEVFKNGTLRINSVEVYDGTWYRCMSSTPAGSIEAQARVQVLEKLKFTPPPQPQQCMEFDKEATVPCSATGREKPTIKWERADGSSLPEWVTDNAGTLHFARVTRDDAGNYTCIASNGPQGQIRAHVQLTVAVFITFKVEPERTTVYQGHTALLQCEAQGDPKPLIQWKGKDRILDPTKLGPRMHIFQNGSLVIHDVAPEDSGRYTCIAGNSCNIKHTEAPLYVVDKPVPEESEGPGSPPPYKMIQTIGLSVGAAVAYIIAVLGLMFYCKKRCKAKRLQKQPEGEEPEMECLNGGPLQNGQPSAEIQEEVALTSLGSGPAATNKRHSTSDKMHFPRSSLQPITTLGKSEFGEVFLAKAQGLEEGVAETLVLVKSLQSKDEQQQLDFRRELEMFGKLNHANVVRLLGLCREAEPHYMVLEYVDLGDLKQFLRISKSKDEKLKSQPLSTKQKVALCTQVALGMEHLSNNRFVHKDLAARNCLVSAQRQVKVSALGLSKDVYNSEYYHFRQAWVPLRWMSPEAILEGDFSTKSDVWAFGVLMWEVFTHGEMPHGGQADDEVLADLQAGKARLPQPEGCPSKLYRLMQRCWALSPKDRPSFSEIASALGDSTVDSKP
Test: flow cytometry on SK-OV-3 cells, FITC goat anti-human secondary antibody, MFI
// reported pEC50 for each item listed
Quick note: pEC50 values are minus log10 of concentrations in mol/L.

humanized PTK7 antibody Hu13H3L0 (Ab13) (antibody, V domains shown) VH: QVQLVQSGAEVKKPGASVKISCKGSGYTFTDYGMHWLKQAPGQGLEWIGVISPYYGDVNYNQKFQGRATMTVDKSISTAYMELSRLRSDDTAVYYCARGMGYWGQGTLVTVSS VL: DIQLTQSPSFLSASVGDRVTITCRASQSISKYLAWYQQKPGKAPKLLIYSGSTLQSGVPSRFSGSGSGTEFTLTISSLQPEDFATYYCQQHNEYPWTFGQGTKVEIK :: 9.72

For the next question, use this binder.
Entry humanized PTK7 antibody Hu13H3L3 (antibody, V domains shown) VH: QVQLVQSGAEVKKPGASVKISCKGSGYTFTDYGMHWLKQAPGQGLEWIGVISPYYGDVNYNQKFQGRATMTVDKSISTAYMELSRLRSDDTAVYYCARGMGYWGQGTLVTVSS VL: DVQITQSPSFLSASVGDRVTITCRASQSISKYLAWYQQKPGKAPKLLIYSGSTLQSGVPSRFSGSGSGTEFTLTISSLQPEDFAMYYCQQHNEYPWTFGQGTKVEIK ; pEC50 = 9.81
